# targetEntity: T1, human C5 R885C-mmh (human, UniProt P01031 19-1676)
# T1 construct: also called human C5 variant R885C
# procedureSummary: SPR, mAb captured via anti-hFc, 25C
Record true (1) whenever kon is at 80000 M⁻¹ s⁻¹ or higher; record false (0) when lower.

Solved entries:
H4H12170P (antibody, human IgG4, V domains shown, Human IgG4 Fc with S108P hinge mutation (H4H)) VH: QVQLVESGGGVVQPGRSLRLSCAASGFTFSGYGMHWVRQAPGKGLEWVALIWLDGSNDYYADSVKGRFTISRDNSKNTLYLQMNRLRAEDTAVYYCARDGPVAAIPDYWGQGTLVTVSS VL: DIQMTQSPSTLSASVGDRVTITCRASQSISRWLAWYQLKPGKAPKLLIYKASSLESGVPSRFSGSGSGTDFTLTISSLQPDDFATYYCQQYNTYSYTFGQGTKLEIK; true (1)
H4H12164P (antibody, human IgG4, V domains shown, Human IgG4 Fc with S108P hinge mutation (H4H)) VH: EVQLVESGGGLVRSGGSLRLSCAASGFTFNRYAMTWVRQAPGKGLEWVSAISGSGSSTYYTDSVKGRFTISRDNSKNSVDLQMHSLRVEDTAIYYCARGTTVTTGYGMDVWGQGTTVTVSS VL: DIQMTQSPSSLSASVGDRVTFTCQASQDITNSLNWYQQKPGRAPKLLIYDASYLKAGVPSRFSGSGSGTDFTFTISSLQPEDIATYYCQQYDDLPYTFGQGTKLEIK; true (1)
H4H12168P (antibody, human IgG4, V domains shown, Human IgG4 Fc with S108P hinge mutation (H4H)) VH: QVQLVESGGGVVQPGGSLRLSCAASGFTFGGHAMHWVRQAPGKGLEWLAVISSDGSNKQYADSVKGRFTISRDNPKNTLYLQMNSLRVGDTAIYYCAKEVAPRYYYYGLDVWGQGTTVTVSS VL: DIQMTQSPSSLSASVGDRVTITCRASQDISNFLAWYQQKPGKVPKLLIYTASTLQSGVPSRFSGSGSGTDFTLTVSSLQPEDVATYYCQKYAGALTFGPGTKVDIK; false (0)

Could you now consider this next binder?
Request: kon >= 80000 M⁻¹ s⁻¹ for H4H12159P (antibody, human IgG4, V domains shown, Human IgG4 Fc with S108P hinge mutation (H4H)) VH: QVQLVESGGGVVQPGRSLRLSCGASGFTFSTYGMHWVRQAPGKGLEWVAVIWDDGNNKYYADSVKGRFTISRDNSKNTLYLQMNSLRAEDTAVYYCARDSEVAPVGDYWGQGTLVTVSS VL: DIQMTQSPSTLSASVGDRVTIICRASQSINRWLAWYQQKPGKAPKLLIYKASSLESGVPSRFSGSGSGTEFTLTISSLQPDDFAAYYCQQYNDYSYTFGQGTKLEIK ?
Response: true (1)
